Collected IC50 values appear next to each entry.
- test-target: human CD73 (Homo sapiens, UniProt P21589)
- Sequence (P21589 27-549): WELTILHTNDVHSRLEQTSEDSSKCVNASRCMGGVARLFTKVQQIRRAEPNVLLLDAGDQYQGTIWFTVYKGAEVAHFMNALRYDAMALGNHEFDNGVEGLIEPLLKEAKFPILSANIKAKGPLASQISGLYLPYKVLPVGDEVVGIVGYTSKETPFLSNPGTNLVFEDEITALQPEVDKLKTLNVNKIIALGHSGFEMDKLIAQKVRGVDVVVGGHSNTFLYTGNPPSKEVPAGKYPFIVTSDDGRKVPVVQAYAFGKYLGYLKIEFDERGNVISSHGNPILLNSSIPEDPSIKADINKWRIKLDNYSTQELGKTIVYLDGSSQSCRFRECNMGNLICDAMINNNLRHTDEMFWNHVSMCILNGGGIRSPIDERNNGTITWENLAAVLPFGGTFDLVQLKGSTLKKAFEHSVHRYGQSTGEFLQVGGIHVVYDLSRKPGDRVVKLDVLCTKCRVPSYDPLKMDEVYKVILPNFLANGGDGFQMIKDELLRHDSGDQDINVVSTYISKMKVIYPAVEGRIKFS
- assay-procedure: Inhibition of Ecto-5′-nucleotidase (CD73) activity in CHO-CD73 cells, phosphate release from AMP
- test-parameters: CHO-K1 cells stably transfected with human CD73; 25 μM AMP; 50 minutes, 37° C.; read-out: Potency: CD73 IC50

Record excerpt, results attached:
Cc1cccc(-n2ncc(Cl)c2-c2cc(F)c3nnn(-c4ccc5cn[nH]c5c4)c3c2)c1 [Example 413]; 100 to 1000 nM
N#Cc1cnc(Cn2nccc2-c2cc(F)c3nnn(-c4ccc5[nH]c(=O)[nH]c5c4)c3c2)c(F)c1 [Example 255]; 100 to 1000 nM
CC(c1ccc(C#N)cc1)n1nccc1-c1ccc2nnn(-c3ccc4cn[nH]c4c3)c2c1 (stereo not shown) [Example 115]; 100 to 1000 nM
N#Cc1ccc(Cn2nccc2-c2cc(F)c3nnn(-c4ccc5[nH]c(=O)[nH]c5c4)c3c2)c(OC(F)(F)F)c1 [Example 292]; 100 to 1000 nM
N#Cc1ccc(Cn2nccc2-c2cc3c(cn2)nnn3-c2ccc3c(=O)[nH][nH]c3c2)cc1 [Example 346]; 100 to 1000 nM

Ask: So what does the record say about IC50 for O=c1[nH]c2ccc(-n3nnc4c(Cl)cc(-c5ccnn5-c5cccc6cccnc56)cc43)cc2[nH]1 [Example 213] ?
Result: > 1000 nM

Ask: Now consider N#Cc1ccc(Cn2nccc2-c2cnc3c(NCC(O)CO)nn(-c4ccc5cn[nH]c5c4)c3c2)cc1 (stereo not shown) [Example 422] and answer again.
Result: > 1000 nM

----------
- test-target: UniProt:P21589
- assay-procedure: Inhibition of Ecto-5′-nucleotidase (CD73) activity in CHO-CD73 cells, phosphate release from AMP
- test-parameters: CHO-K1 cells stably transfected with human CD73; 25 μM AMP; 50 minutes, 37° C.; read-out: Potency: CD73 IC50
reported-endpoint: IC50

Field: example entries. Status: answers known.
Cn1nc(-c2ccc3cn[nH]c3c2)c2cc(-c3ccnn3Cc3ccc(C#N)cc3)cnc21 [Example 341]; 100 to 1000 nM
Fc1cc(-c2ccnn2Cc2ccc(Cl)cn2)cc2c1cnn2-c1ccc2cn[nH]c2c1 [Example 133]; > 1000 nM
O=c1[nH]c2ccc(-n3nnc4c(F)cc(-c5ccnn5Cc5ccc6c(c5)OC(F)(F)O6)cc43)cc2[nH]1 [Example 233]; > 1000 nM
N#Cc1ccc(Cn2nccc2-c2cnc3c(N)nn(-c4ccc5[nH]c(=O)[nH]c5c4)c3c2)nc1 [Example 315]; 100 to 1000 nM

Ask: Please give the measured IC50 for this compound: Fc1cc(-c2ccnn2C2CCCOC2)cc2c1nnn2-c1ccc2cn[nH]c2c1 (stereo not shown) [Example 373]
Result: > 1000 nM

Ask: Now consider Fc1ccc(Cn2nccc2-c2cnc3cnn(-c4ccc5cn[nH]c5c4)c3c2)nc1 [Example 181] .
Result: > 1000 nM

Ask: Same thing, different compound: N#Cc1cc(F)c(Cn2nccc2-c2cc(F)c3nnn(-c4ccc5[nH]c(=O)[nH]c5c4)c3c2)c(Cl)c1 [Example 276]
Result: > 1000 nM

Ask: Field entry: O=c1[nH]c2ccc(-n3nnc4c(F)cc(-c5ccnn5Cc5ccc(Cl)cc5F)cc43)cc2[nH]1 [Example 191]
Result: 100 to 1000 nM

Ask: Same again, this time with N#Cc1ccc(Cn2nccc2-c2cc(Cl)c3nnn(-c4ccc5[nH]c(=O)[nH]c5c4)c3c2)c(Cl)c1 [Example 250]
Result: < 100 nM

----------
- test-target: UniProtKB P21589
- assay-procedure: Inhibition of Ecto-5′-nucleotidase (CD73) activity in CHO-CD73 cells, phosphate release from AMP
- test-parameters: CHO-K1 cells stably transfected with human CD73; 25 μM AMP; 50 minutes, 37° C.; read-out: Potency: CD73 IC50
pIC50: −log10 of the molar value.
reported-endpoint: pIC50

N#Cc1ccc(Cn2nccc2-c2cc3c(cc2Cl)nnn3-c2ccc3cn[nH]c3c2)c(F)c1; > 7.00

Ask: I'd like to know its pIC50. The compound in question is COCc1cc(C#N)ccc1Cn1nccc1-c1cc(F)c2nnn(-c3ccc4[nH]c(=O)[nH]c4c3)c2c1
Result: 6.00 to 7.00

Ask: What do you get for OC(Cn1nccc1-c1cc(F)c2nnn(-c3ccc4cn[nH]c4c3)c2c1)c1ccccc1 (stereo not drawn) ?
Result: < 6.00

----------
- test-target: human CD73 (Homo sapiens, UniProt P21589)
- Sequence (P21589 27-549): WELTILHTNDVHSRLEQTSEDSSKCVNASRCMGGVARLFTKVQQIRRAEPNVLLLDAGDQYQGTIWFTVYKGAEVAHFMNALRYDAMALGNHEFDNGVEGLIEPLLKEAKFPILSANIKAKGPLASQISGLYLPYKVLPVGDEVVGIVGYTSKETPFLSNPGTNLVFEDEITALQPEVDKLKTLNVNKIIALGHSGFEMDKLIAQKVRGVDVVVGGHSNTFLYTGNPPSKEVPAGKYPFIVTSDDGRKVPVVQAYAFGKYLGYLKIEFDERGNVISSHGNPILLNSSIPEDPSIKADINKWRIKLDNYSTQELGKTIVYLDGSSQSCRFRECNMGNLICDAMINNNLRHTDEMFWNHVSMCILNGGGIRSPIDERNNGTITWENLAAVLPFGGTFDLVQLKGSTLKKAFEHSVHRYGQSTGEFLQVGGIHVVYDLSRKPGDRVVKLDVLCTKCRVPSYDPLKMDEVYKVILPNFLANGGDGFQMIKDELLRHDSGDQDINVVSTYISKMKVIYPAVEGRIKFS
- assay-procedure: Inhibition of Ecto-5′-nucleotidase (CD73) activity in CHO-CD73 cells, phosphate release from AMP
- test-parameters: CHO-K1 cells stably transfected with human CD73; 25 μM AMP; 50 minutes, 37° C.; read-out: Potency: CD73 IC50
reported-endpoint: IC50

Clc1ccc(Cn2nccc2-c2ccn3nnc(-c4ccc5cn[nH]c5c4)c3c2)c(Cl)c1; < 100 nM
N#Cc1ccc(Cn2nccc2-c2cc3c(cn2)c(N)nn3-c2ccc3[nH]c(=O)[nH]c3c2)cc1; 100 to 1000 nM
O=c1[nH]c2cc(-n3nnc4c(F)cc(-c5ccnn5Cc5ccc(Cl)cc5Cl)cc43)ccc2o1; > 1000 nM
COc1ccc(Cn2nccc2-c2cc3c(cn2)nnn3-c2ccc3[nH]c(=O)[nH]c3c2)c(Cl)c1; 100 to 1000 nM
O=c1[nH]c2ccc(-n3nnc4c(Cl)cc(-c5ccnn5Cc5cc(F)ccc5F)cc43)cc2[nH]1; > 1000 nM

Ask: What value of IC50 has been recorded for this entry: Cn1nccc1-c1cc(C#N)ccc1Cn1nccc1-c1cc(F)c2nnn(-c3ccc4[nH]c(=O)[nH]c4c3)c2c1
Result: 100 to 1000 nM

Ask: Please answer likewise for Nc1nn(-c2ccc3[nH]c(=O)[nH]c3c2)c2cc(-c3ccnn3Cc3ccc(Cl)cn3)cnc12
Result: > 1000 nM

Reference for the values: patent US11931343B2
